Source: paper PMC13308190

- Tested on: mESC
- Assay text: AlamarBlue cell viability
- Assay type: cell-based, mouse
- Condition context: Mus musculus, 24 h treatment
Recorded pIC50 values for a group of compounds are listed next.
Reminder that pIC50 means the negative base-10 logarithm of the concentration expressed in mol/L.

COc1cccc2c1C(=O)c1c(O)c3c(c(O)c1C2=O)C[C@@](O)(C(=O)CO)C[C@@H]3O[C@H]1C[C@H](N)[C@H](O)[C@H](C)O1
6.77

// moving on: another record for pIC50
Problem: Could you share which pIC50 value was measured for "Nc1ccccc1NC(=O)c1ccc(CNC(=O)OCc2cccnc2)cc1" ?
Result: 4.73

---

- Test system: mESC
- Assay text: Western blot protein expression (densitometry)
- Format: cell-based, mouse
- Condition context: mESC 24 h; Fig 4H; Eto, Dox 1, B02, EST
- Protocol: Total protein cell extracts were obtained upon sonication in RIPA buffer (EpiShearTM Probe sonicator, Active Motif [La Hulpe, Belgium]). Protein concentrations were determined using the DC Protein Assay (BioRad [Munich, Germany]). Extracts were supplemented with Roti®-Load buffer (Carl Roth GmbH [Karlsruhe, Germany]) followed by heating (95 °C for 5 min). 20 µg of protein was separated by SDS-PAGE and transferred onto nitrocellulose membrane. […]
Reported endpoint: CHK1 protein

Problem: Could you share which CHK1 protein value was measured for "Nc1ccccc1NC(=O)c1ccc(CNC(=O)OCc2cccnc2)cc1" ?
Result: 1.0 Fold of mESC

Problem: Could you share which CHK1 protein value was measured for COc1cc([C@@H]2c3cc4c(cc3[C@@H](O[C@@H]3O[C@@H]5CO[C@@H](C)O[C@H]5[C@H](O)[C@H]3O)[C@H]3COC(=O)[C@H]23)OCO4)cc(OC)c1O [Eto, etoposide] ?
Result: 1.0 Fold of mESC

Problem: Could you share which CHK1 protein value was measured for "COc1cccc2c1C(=O)c1c(O)c3c(c(O)c1C2=O)C[C@@](O)(C(=O)CO)C[C@@H]3O[C@H]1C[C@H](N)[C@H](O)[C@H](C)O1" ?
Result: 1.0 Fold of mESC

Problem: Could you share which CHK1 protein value was measured for "O=c1c2ccccc2nc(/C=C/c2cccnc2)n1Cc1ccccc1" ?
Result: 1.4 Fold of mESC
